B1: POU domain, class 3, transcription factor 3, residues 320 to 388; numbered along this chain, P20264 (parent)
chain: DDLEQFAKQFKQRRIKLGFTQADVGLALGTLYGNVFSQTTICRFEALQLSFKNMCKLKPLLNKWLEEAD

- Variants of: B1
- Run description: abundance fitness (aPCA) (normalised: wild type 0, dead -1); higher = more abundant; growth selection in yeast, the domain comes from the species named
- Condition summary: Homo sapiens
Entries and their abundance fitness
The reply should be a number, written without any unit.

Mutation list: G25R
abundance fitness: -0.3

Query: Write down abundance fitness measured for item `G29S`
Response: 0.092

Query: Quickly give me recorded abundance fitness for `T40K`
Response: -0.179

Query: // fetch abundance fitness given entry `G33D`
Response: -0.545

Query: Recall and state the measured abundance fitness for `T30G` .
Response: -0.013
